Target: BRDT(1, 2) (Homo sapiens)
Construct: T7 phage strains displaying bromodomains were grown in parallel
Assay: BROMOscan BromoKdMAX
observedProperty: Kd (nM)
The reply should be a number in nM, with the unit left off.

get_value(item= CO[C@H]1CC[C@H](n2c([C@@H]3CCCC(=O)N3c3ccc(F)c(F)c3)nc3cc(-c4c(C)noc4C)ccc32)CC1 , readout=Kd) returns 2400

###

Target: CECR2 (Homo sapiens, UniProt Q9BXF3)
Construct: T7 phage strains displaying bromodomains were grown in parallel
Sequence (Q9BXF3 434-538 limits assumed): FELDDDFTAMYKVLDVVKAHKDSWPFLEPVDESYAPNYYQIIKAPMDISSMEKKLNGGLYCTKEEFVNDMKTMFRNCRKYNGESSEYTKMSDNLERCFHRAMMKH
Assay: BROMOscan BromoKdMAX
observedProperty: Kd

Kd in this record for CO[C@H]1CC[C@H](n2c([C@@H]3CCCC(=O)N3c3ccc(F)c(F)c3)nc3cc(-c4c(C)noc4C)ccc32)CC1 [CCS1477] : > 10 µM

###

Biological target: TRIM33(PHD, Bromo.) (Homo sapiens)
Construct: TRIM33(PHD, Bromo.)
Sequence (Q9UPN9 whole entry): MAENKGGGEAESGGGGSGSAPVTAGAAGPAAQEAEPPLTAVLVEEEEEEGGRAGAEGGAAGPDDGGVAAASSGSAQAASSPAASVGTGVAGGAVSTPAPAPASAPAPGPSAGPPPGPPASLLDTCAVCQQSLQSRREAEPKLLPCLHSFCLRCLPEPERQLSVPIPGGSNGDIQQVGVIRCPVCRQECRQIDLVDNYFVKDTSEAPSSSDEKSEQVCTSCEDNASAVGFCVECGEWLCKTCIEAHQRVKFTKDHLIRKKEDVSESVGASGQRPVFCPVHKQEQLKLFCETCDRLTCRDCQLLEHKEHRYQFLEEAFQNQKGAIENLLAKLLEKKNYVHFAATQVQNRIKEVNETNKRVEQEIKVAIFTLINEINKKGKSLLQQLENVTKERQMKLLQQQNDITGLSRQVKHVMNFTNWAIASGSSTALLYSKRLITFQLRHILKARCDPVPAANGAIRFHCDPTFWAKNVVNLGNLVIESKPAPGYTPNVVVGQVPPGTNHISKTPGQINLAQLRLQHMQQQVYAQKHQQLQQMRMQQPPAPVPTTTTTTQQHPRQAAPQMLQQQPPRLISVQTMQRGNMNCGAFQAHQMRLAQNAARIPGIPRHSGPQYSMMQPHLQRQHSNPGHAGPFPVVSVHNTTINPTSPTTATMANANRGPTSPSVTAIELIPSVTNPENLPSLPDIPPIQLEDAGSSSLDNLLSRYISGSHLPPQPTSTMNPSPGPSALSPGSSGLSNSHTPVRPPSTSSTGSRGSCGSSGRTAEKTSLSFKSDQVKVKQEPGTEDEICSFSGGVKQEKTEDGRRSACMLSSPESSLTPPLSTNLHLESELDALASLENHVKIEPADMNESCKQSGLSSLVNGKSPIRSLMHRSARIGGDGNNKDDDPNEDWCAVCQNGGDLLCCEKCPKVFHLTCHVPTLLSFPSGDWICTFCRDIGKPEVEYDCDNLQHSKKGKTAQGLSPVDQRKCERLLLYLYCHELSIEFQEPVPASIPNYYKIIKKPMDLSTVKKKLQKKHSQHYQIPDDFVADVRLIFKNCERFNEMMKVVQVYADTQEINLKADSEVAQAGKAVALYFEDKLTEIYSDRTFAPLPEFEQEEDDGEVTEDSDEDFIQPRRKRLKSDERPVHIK
Assay: BROMOscan BromoKdMAX
pKd: −log10 of the molar value.
observedProperty: pKd

Reading of pKd for CO[C@H]1CC[C@H](n2c([C@@H]3CCCC(=O)N3c3ccc(F)c(F)c3)nc3cc(-c4c(C)noc4C)ccc32)CC1 with TRIM33(PHD, Bromo.) (Homo sapiens): < 5.00

Lab entry: TRIM33(PHD, Bromo.) (Homo sapiens) assay, molecule CC(=O)N1C[C@H](c2nc(Nc3cccc(-c4cn(C)nn4)c3)cc(-c3cnccn3)n2)CC[C@@H]1C , pKd = < 5.00

###

Biological target: FALZ (Homo sapiens)
Construct: T7 phage strains displaying bromodomains were grown in parallel
Experiment: BROMOscan BromoKdMAX
observedProperty: Kd (µM)
Give the value in µM but do not write µM after it.

FALZ (Homo sapiens) data for CO[C@H]1CC[C@H](n2c([C@@H]3CCCC(=O)N3c3ccc(F)c(F)c3)nc3cc(-c4c(C)noc4C)ccc32)CC1 ; its Kd: 5.5

###

Target: PBRM1(5) (Homo sapiens)
Construct: T7 phage strains displaying bromodomains were grown in parallel
Sequence (Q86U86 653-763 limits assumed): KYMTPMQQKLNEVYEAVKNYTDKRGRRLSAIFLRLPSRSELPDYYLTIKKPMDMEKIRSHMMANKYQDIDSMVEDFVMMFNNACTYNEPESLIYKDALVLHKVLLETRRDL
Test: BROMOscan BromoKdMAX
observedProperty: pKd
Field pKd (float): negative decimal logarithm of the concentration in molar.

Item CO[C@H]1CC[C@H](n2c([C@@H]3CCCC(=O)N3c3ccc(F)c(F)c3)nc3cc(-c4c(C)noc4C)ccc32)CC1 ; assay system PBRM1(5) (Homo sapiens); pKd reported as 5.51

###

Below, each entry is listed with its recorded Kd.
Molecular target: BAZ2B (Homo sapiens)
Construct: T7 phage strains displaying bromodomains were grown in parallel
Sequence (Q9UIF8 2060-2164 limits assumed): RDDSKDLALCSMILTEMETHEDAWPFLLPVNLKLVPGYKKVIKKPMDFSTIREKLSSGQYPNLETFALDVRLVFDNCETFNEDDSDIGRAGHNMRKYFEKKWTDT
Assay: BROMOscan BromoKdMAX

| compound | system | valueReported |
| --- | --- | --- |
| CC(=O)N1C[C@H](c2nc(Nc3cccc(-c4cn(C)nn4)c3)cc(-c3cnccn3)n2)CC[C@@H]1C [Compound C] | BAZ2B (Homo sapiens) | > 10 µM |

Continue with the compound presented below.
Per the records, this compound ( CO[C@H]1CC[C@H](n2c([C@@H]3CCCC(=O)N3c3ccc(F)c(F)c3)nc3cc(-c4c(C)noc4C)ccc32)CC1 [CCS1477] ) has Kd equal to > 10 µM

###

Molecular target: ATAD2B (Homo sapiens)
Construct: T7 phage strains displaying bromodomains were grown in parallel
Sequence (Q9ULI0 951-1066 limits assumed): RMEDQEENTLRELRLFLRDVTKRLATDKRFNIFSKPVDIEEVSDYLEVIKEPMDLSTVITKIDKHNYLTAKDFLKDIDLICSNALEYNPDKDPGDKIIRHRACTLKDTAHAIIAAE
Assay: BROMOscan BromoKdMAX
Reported values of Kd for individual entries

| molecule | valueReported |
| --- | --- |
| CC(=O)N1C[C@H](c2nc(Nc3cccc(-c4cn(C)nn4)c3)cc(-c3cnccn3)n2)CC[C@@H]1C [Compound C] | > 10 µM |

Continue with the next molecule.
Input CO[C@H]1CC[C@H](n2c([C@@H]3CCCC(=O)N3c3ccc(F)c(F)c3)nc3cc(-c4c(C)noc4C)ccc32)CC1 [CCS1477] . Output Kd: > 10 µM

###

Molecular target: BRDT(1) (Homo sapiens)
Construct: T7 phage strains displaying bromodomains were grown in parallel
Assay: BROMOscan BromoKdMAX
observedProperty: pKd
Quick note: pKd values are minus log10 of concentrations in mol/L.

Per the records, this molecule ( CO[C@H]1CC[C@H](n2c([C@@H]3CCCC(=O)N3c3ccc(F)c(F)c3)nc3cc(-c4c(C)noc4C)ccc32)CC1 [CCS1477] ) has pKd equal to 6.41

###

Catalogue of Kd readings, one per entry.
Molecular target: BRD1 (Homo sapiens)
Construct: T7 phage strains displaying bromodomains were grown in parallel
Sequence (O95696 562-666 limits assumed): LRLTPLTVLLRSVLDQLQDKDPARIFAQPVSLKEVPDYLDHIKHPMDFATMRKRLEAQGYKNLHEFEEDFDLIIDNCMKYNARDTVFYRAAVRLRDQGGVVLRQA
Assay: BROMOscan BromoKdMAX
Procedure: A BromoKdMAX was performed at DiscoverX. The assay principle is the following: BROMOscan™ is a novel industry leading platform for identifying small molecule bromodomain inhibitors. Based on proven KINOMEscan™ technology, BRO-MOscan™ employs a proprietary ligand binding site-directed competition assay to quantitatively measure interactions between test compounds and bromodomains. […]

| compound | Kd |
| --- | --- |
| CC(=O)N1C[C@H](c2nc(Nc3cccc(-c4cn(C)nn4)c3)cc(-c3cnccn3)n2)CC[C@@H]1C [Compound C] | > 10 µM |

// moving on: another record for Kd
Fill in: BRD1 (Homo sapiens) Kd for CO[C@H]1CC[C@H](n2c([C@@H]3CCCC(=O)N3c3ccc(F)c(F)c3)nc3cc(-c4c(C)noc4C)ccc32)CC1 [CCS1477] = > 10 µM

###

Target: TRIM24(Bromo.) (Homo sapiens, UniProt O15164)
Construct: TRIM24(Bromo.)
Sequence (O15164 899-1004 limits assumed): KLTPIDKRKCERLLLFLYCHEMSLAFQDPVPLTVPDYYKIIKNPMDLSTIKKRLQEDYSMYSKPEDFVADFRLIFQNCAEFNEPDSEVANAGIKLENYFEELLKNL
Assay: BROMOscan BromoKdMAX
Procedure: A BromoKdMAX was performed at DiscoverX. The assay principle is the following: BROMOscan™ is a novel industry leading platform for identifying small molecule bromodomain inhibitors. Based on proven KINOMEscan™ technology, BRO-MOscan™ employs a proprietary ligand binding site-directed competition assay to quantitatively measure interactions between test compounds and bromodomains. […]
observedProperty: pKd
pKd is defined as minus the log10 of a concentration measured in mol/L.

Record CO[C@H]1CC[C@H](n2c([C@@H]3CCCC(=O)N3c3ccc(F)c(F)c3)nc3cc(-c4c(C)noc4C)ccc32)CC1 [CCS1477] ; system TRIM24(Bromo.) (Homo sapiens, UniProt O15164); pKd = 6.17

###

// reported Kd per item
Target: GCN5L2 (Homo sapiens)
Construct: T7 phage strains displaying bromodomains were grown in parallel
Sequence (Q92830 728-832 limits assumed): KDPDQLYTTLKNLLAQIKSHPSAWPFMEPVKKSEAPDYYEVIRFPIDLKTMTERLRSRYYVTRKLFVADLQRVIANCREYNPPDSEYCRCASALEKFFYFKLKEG
Assay: BROMOscan BromoKdMAX

Short answer for CC(=O)N1C[C@H](c2nc(Nc3cccc(-c4cn(C)nn4)c3)cc(-c3cnccn3)n2)CC[C@@H]1C : Kd was > 10 µM

Entry under test: CO[C@H]1CC[C@H](n2c([C@@H]3CCCC(=O)N3c3ccc(F)c(F)c3)nc3cc(-c4c(C)noc4C)ccc32)CC1 . Its Kd was > 10 µM

###

Biological target: BRD7 (Homo sapiens, UniProt Q9NPI1)
Construct: T7 phage strains displaying bromodomains were grown in parallel
Sequence (Q9NPI1 131-235 limits assumed): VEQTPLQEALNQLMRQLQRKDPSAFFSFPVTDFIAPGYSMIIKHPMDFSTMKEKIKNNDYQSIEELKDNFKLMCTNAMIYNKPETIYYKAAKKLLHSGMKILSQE
Assay: BROMOscan BromoKdMAX
observedProperty: Kd (µM)
The reply should be a number in µM, with the unit left off.

Measured Kd for this entry CO[C@H]1CC[C@H](n2c([C@@H]3CCCC(=O)N3c3ccc(F)c(F)c3)nc3cc(-c4c(C)noc4C)ccc32)CC1 on BRD7 (Homo sapiens, UniProt Q9NPI1): 5.1

###

Target: BRDT(2) (Homo sapiens, UniProt Q58F21)
Construct: T7 phage strains displaying bromodomains were grown in parallel
Assay: BROMOscan BromoKdMAX
observedProperty: pKd
Just the number, please; pKd means minus log10 of the concentration in mol/L.

// field: pKd; key: CO[C@H]1CC[C@H](n2c([C@@H]3CCCC(=O)N3c3ccc(F)c(F)c3)nc3cc(-c4c(C)noc4C)ccc32)CC1 ; value = 5.05

###

Molecular target: WDR9(2) (Homo sapiens, UniProt Q9NSI6)
Construct: T7 phage strains displaying bromodomains were grown in parallel
Sequence (Q9NSI6 1313-1418 limits assumed): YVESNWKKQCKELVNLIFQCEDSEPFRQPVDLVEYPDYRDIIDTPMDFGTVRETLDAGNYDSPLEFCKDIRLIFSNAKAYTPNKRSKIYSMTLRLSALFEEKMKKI
Experiment: BROMOscan BromoKdMAX
observedProperty: Kd

# Kd (compound: CO[C@H]1CC[C@H](n2c([C@@H]3CCCC(=O)N3c3ccc(F)c(F)c3)nc3cc(-c4c(C)noc4C)ccc32)CC1 ) is > 10 µM

###

Biological target: BRPF3 (Homo sapiens, UniProt Q9ULD4)
Construct: T7 phage strains displaying bromodomains were grown in parallel
Sequence (Q9ULD4 589-693 limits assumed): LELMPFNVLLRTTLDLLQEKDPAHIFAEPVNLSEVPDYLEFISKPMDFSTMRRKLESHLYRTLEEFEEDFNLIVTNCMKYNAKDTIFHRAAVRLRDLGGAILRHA
Assay: BROMOscan BromoKdMAX
Parameter Kd: see the listing below.

| compound | observedProperty | valueReported |
| --- | --- | --- |
| CC(=O)N1C[C@H](c2nc(Nc3cccc(-c4cn(C)nn4)c3)cc(-c3cnccn3)n2)CC[C@@H]1C [Compound C] | Kd | > 10 µM |

So, CO[C@H]1CC[C@H](n2c([C@@H]3CCCC(=O)N3c3ccc(F)c(F)c3)nc3cc(-c4c(C)noc4C)ccc32)CC1 [CCS1477] ? Its Kd was > 10 µM
